Source: PubChem BioAssay AID1159580

Listed molecules paired with reported normalized growth
measurement.protocol: chemical genetic growth profiling, strain panel (AID 1159580);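 note: tested at 20 µM; growth read once vehicle control cultures reached saturation at 30 °C; 1 = growth at the plate median or of vehicle wells; lower values mean less growth of the strain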
condition.info: S. cerevisiae deletion strains, growth OD, strain NNK1, active compounds read low
Screen size: about 5,500 compounds; about 2,000 (36%) were called active. Roughly 18% stayed inconclusive and do not appear here. The list shows a part of the results.
When you answer, write just the number.

// known answers, use as guide
INSERT INTO results (molecule, value_measured) VALUES
  ('Cc1nn(Cc2nnc(SCc3cccc(C(F)(F)F)c3)o2)c(C)c1Br', 0.961),
  ('CNC(=O)n1nc(C)c(Cc2csc3ccc(Cl)cc23)c1C', 0.991),
  ('Cc1ccc(N2C(=O)CSC2c2ccc(Cl)c(Cl)c2)cc1Cl (centres undefined)', 0.959);

Okay, next one:
In: Any idea what normalized growth was measured for O=C(CCn1c(=O)oc2ccccc21)Sc1ccc(C(F)(F)F)cc1 ?
Out: 0.96
